Provenance of the data: PubChem BioAssay AID1845208

Tested on: NCI-H196 SCLC complex tumor spheroid viability
Experiment: Anticancer human tumor NCI-H196 cell line growth inhibition;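 note: spheroids exposed to compounds for 7 days before readout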
Details: curve of first compound; second compound 0.3 µM
Quantity measured: IC50 (nM)
Supply the numeric figure in nM, leaving out any unit text.

These solved cases illustrate the format of a correct answer.
[[record]]
compound = "CC1COCCN1c1cc(-c2ccnn2C)c2ccnc(-c3ccn[nH]3)c2n1 (stereo not given) + CC[C@@]1(O)C(=O)OCc2c1cc1n(c2=O)Cc2cc3c(CN(C)C)c(O)ccc3nc2-1"
quantity_measured = "IC50"
readout_units = "nM"
result_number = 334

[[record]]
compound = "Cc1sc2c(c1C)C(c1ccc(Cl)cc1)=NC(CC(=O)Nc1ccc(O)cc1)c1nnc(C)n1-2 (stereo not given) + CC[C@@]1(O)C(=O)OCc2c1cc1n(c2=O)Cc2cc3c(CN(C)C)c(O)ccc3nc2-1"
quantity_measured = "IC50"
readout_units = "nM"
result_number = 373


For the compound COc1ccc([C@@H](O)c2cc(-c3ncnc4cc(N5CCOCC5)ccc34)c(F)cc2Cl)nn1 + CC[C@@]1(O)C(=O)OCc2c1cc1n(c2=O)Cc2cc3c(CN(C)C)c(O)ccc3nc2-1 , report IC50.
2610
